- Experimental target: Kv2.1 α subunit (Rattus norvegicus, UniProt P15387)
- Construct: homomeric channel
- Sequence (P15387 whole entry): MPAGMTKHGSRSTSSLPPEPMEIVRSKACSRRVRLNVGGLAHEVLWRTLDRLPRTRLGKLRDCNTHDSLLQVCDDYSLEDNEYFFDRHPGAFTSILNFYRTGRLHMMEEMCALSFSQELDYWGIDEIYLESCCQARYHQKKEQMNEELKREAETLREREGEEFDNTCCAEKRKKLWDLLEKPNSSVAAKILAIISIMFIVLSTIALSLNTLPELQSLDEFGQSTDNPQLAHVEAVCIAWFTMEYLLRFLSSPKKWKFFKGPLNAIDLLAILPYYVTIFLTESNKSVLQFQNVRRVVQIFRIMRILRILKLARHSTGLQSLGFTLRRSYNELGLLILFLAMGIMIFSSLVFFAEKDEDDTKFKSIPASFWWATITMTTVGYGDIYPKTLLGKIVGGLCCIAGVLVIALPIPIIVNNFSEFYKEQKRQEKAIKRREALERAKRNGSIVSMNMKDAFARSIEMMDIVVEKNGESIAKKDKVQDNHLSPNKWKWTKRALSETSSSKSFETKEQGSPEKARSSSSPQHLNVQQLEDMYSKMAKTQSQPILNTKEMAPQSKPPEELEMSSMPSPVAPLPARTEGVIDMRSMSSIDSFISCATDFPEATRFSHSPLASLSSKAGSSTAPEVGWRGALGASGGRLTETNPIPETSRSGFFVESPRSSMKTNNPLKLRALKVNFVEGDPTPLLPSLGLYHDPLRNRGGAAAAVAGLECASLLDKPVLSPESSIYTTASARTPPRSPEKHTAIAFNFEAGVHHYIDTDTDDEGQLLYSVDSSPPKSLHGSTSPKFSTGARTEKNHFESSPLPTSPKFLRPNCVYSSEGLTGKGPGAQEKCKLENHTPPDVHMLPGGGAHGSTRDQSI
- Test: whole-cell patch clamp, tail current amplitude
Reported property: IC50 (µM)
Write it as a number; the unit µM goes unstated.

Please provide the recorded IC50 for "C=C[C@@]1(C)CC(=O)[C@]2(O)[C@@]3(C)[C@@H](O)CCC(C)(C)[C@@H]3[C@H](O)[C@H](OC(C)=O)[C@@]2(C)O1" , tested on Kv2.1 α subunit (Rattus norvegicus, UniProt P15387).
31.6
